Entries and their pIC50
Molecular target: Prostaglandin G/H synthase 1 (Rattus norvegicus, UniProt Q63921)
Sequence (Q63921 whole entry): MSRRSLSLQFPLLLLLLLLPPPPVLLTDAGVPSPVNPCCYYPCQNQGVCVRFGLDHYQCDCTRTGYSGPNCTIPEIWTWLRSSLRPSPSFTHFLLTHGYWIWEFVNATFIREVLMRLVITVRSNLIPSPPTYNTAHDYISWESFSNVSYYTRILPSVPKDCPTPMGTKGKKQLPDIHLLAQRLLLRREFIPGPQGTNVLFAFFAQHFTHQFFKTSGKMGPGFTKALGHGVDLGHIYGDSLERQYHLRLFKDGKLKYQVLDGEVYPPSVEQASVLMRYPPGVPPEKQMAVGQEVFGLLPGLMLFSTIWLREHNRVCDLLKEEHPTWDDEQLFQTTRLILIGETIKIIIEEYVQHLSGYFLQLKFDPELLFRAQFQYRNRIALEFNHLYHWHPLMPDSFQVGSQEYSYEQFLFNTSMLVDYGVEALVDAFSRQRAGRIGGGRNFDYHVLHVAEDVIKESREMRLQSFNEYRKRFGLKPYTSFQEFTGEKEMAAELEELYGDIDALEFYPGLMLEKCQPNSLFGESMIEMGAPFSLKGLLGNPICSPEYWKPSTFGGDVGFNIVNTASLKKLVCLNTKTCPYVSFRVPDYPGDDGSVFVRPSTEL
pIC50: −log10 of the molar value.

Completed entries (count: 2):
COc1ccc2c(c1)c(C[C@H](C)CC(=O)O)c(C)n2Cc1ccc(Br)cc1: < 5.00
COc1ccc2c(c1)c(C[C@@H](C)CC(=O)O)c(C)n2Cc1ccc(Br)cc1: < 5.00

Q. Can you look up the measured pIC50 of COc1ccc2c(c1)c(CC(C)CC(=O)O)c(C)n2Cc1ccc(Br)cc1 (stereo not drawn) for me?
A. < 5.00
